B1: library; the commonest letter at each place (parent)
chain: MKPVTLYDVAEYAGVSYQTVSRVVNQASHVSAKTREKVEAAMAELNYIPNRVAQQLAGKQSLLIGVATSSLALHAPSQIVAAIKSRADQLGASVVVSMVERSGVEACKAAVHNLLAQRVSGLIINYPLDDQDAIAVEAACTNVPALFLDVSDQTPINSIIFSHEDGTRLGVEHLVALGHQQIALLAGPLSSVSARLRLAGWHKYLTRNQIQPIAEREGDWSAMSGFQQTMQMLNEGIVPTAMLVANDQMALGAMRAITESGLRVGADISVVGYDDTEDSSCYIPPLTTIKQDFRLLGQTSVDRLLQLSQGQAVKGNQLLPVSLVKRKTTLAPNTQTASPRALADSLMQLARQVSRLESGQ

variants of: B1; details: with IPTG
Overview of reported EC50 for IPTG (log10 µmol/L) across a group of variants:
// no unit string in output, number only

Solved cases (5 shown):
1) V96M :: 2.31
2) L62M A109V D149E M242V P285S Q317R :: 2.91
3) S279T :: 1.48
4) I83M :: 2.56
5) E44D R101G R303S R355L :: 1.62

Param item = S69T V80L ; retrieve measured EC50 for IPTG (log10 µmol/L).
1.75

Here is the next variant: A72V A110V N142D S322L
0.557
